Where these numbers come from: PubChem BioAssay (NCI)

tested on: SNB-19 CNS; experiment: NCI-60 one-dose screen, 48 h (100 = growth as untreated, 0 = no growth, -100 = all killed); conditions: 10 µM unless noted
The panel holds about 83,000 compounds, 20% with a hit somewhere; the sample as a whole holds those more often. The source made the active and inactive calls. Rule for the calls: active = growth percent below 10; inactive = the rest.
Overview of recorded growth for various compounds

Some entries whose results are on file:
>>> val("COc1ccc(CCn2cncc2-c2c[nH]c3ccccc23)cc1")
"91.4% (inactive)"
>>> val("NS(=O)(=O)c1ccc(CCN2C(=O)C=CC2=O)cc1")
"107% (inactive)"
>>> val("COc1cc(/C=N/NC(=O)c2cnn3c2NC(c2ccccc2)C3)ccc1OCc1ccccc1 (stereo not given)")
"19.3% (inactive)"
>>> val("O=C(/C=C(/C=C/c1coc2ccccc12)OB(F)F)/C=C/c1coc2ccccc12")
"89.1% (inactive)"
>>> val("COC(=O)C1=C(C(=O)ON)[C@@H]2C=C[C@@]1([C@@H](Cc1ccccc1)Nc1ccccc1)O2")
"104% (inactive)"

Query: Item c1ccc(-c2cn3c(ccc4ccccc43)n2)cc1 has what recorded growth?
Response: 65% (inactive)

Query: Item CCc1ccc(CNc2ccc(N3CCOCC3)c(C(=O)O)c2)cc1 has what recorded growth?
Response: 107% (inactive)

Query: Item NCCCCCCNc1cc(-c2cccc(OC(F)(F)F)c2)nc2ccc(N3CCCC3)cc12 has what recorded growth?
Response: 16.5% (inactive)

Query: Item COc1ccc(C(=O)CSc2nc(-c3cc(OC)ccc3OC)cc(-c3ccc(Cl)cc3)c2C#N)cc1 has what recorded growth?
Response: 40.3% (inactive)

Query: Item COc1cc(NC(=O)CSc2nc3ccc(C)cc3c(=O)n2Cc2ccccc2)cc(OC)c1OC has what recorded growth?
Response: 89.8% (inactive)
